The values you see were collected from patent US9409922B2.

System: NL-RLuc virus
Experiment summary: Inhibition of HIV replication: NL-RLuc reporter virus in MT-2 cells, luciferase readout
Format: cell-based
Applied conditions: Human immunodeficiency virus 1, MT2, 120 h, MT-2 cells infected with NL-RLuc virus, 5 days of incubation, 10% FBS, at least 2 experiments
Text: Inhibition of HIV Replication: A recombinant NL-RLuc proviral clone was constructed in which a section of the nef gene from NL4-3 was replaced with the Renilla Luciferase gene. […] In addition, the luciferous reporter provides a simple and easy method for quantitating the extent of virus growth and consequently, the antiviral activity of test compounds. […] Luciferase was quantitated using the Dual Luciferase kit from Promega (Madison, Wis.). […]

{"Compound": "Cc1c([C@H](OC(C)(C)C)C(=O)O)c2n3cc(nc3c1C)-c1cccc(c1)-c1cccc(F)c1O[C@@H](C)CCCCOC1(C)CCN2CC1 [Example 37]", "EC50, nM": 10}
{"Compound": "Cc1c([C@H](OC(C)(C)C)C(=O)O)c2n3cc(nc3c1Br)-c1cccc(c1)-c1cccc(F)c1O[C@@H](C)CCCCOC1(C)CCN2CC1 [Example 36]", "EC50, nM": 10}
{"Compound": "C=C(C)c1c(C)c([C@H](OC(C)(C)C)C(=O)O)c2n3cc(nc13)-c1cccc(c1)-c1cc(F)ccc1O[C@@H](C)CCCCOC1(C)CCN2CC1 [Example 48]", "EC50, nM": 24}
{"Compound": "Cc1cc2nc3cn2c(c1[C@H](OC(C)(C)C)C(=O)O)N1CCC(C)(CC1)OCCCC[C@H](C)Oc1cc(F)ccc1-c1cccc-3c1 [Example 7]", "EC50, nM": 5}
{"Compound": "Cc1c([C@H](OC(C)(C)C)C(=O)O)c2n3cc(nc3c1CO)-c1cccc(c1)-c1cc(F)ccc1O[C@@H](C)CCCCOC1(C)CCN2CC1 [Example 53]", "EC50, nM": 8}
{"Compound": "Cc1c([C@H](OC(C)(C)C)C(=O)O)c2n3cc(nc3c1C(C)C)-c1cccc(c1)-c1cc(F)ccc1O[C@@H](C)CCCCOC1(C)CCN2CC1 [Example 56]", "EC50, nM": 72}
{"Compound": "Cc1c([C@H](OC(C)(C)C)C(=O)O)c2n3cc(nc3c1Cl)-c1cccc(c1)-c1cc(F)ccc1O[C@@H](C)CCCCOC1(C)CCN2CC1 [Example 61]", "EC50, nM": 15}
{"Compound": "Cc1c([C@H](OC(C)(C)C)C(=O)O)c2n3cc(nc3c1C)-c1cccc(c1)-c1cc(F)c(F)cc1O[C@@H](C)CCCCOC1(C)CCN2CC1 [Example 41]", "EC50, nM": 13}
{"Compound": "Cc1c([C@H](OC(C)(C)C)C(=O)O)c2n3cc(nc3c1-c1ccncc1)-c1cccc(c1)-c1cc(F)ccc1O[C@@H](C)CCCCOC1(C)CCN2CC1 [Example 39]", "EC50, nM": 12}
{"Compound": "Cc1ccc2c(c1)-c1cccc(c1)-c1cn3c(c([C@H](OC(C)(C)C)C(=O)O)c(C)cc3n1)N1CCC(C)(CC1)OCCCC[C@H](C)O2 [Example 8]", "EC50, nM": 15}
{"Compound": "Cc1cc2nc3cn2c(c1[C@H](OC(C)(C)C)C(=O)O)N1CCC(C)(CCCCCCOc2ccc(F)cc2CNC3=O)CC1 [Example 2]", "EC50, nM": 16}
{"Compound": "Cc1cc2nc3cn2c(c1[C@H](OC(C)(C)C)C(=O)O)N1CCC(C)(CC1)OC/C=C/C[C@H](C)Oc1cc(F)c(F)cc1-c1cccc-3c1 [Example 11]", "EC50, nM": 12}
